- subject of test: Histone deacetylase 3/Nuclear receptor corepressor 2 (HDAC3/NCoR2) (Homo sapiens, UniProt O15379)
- Sequence (O15379 whole entry): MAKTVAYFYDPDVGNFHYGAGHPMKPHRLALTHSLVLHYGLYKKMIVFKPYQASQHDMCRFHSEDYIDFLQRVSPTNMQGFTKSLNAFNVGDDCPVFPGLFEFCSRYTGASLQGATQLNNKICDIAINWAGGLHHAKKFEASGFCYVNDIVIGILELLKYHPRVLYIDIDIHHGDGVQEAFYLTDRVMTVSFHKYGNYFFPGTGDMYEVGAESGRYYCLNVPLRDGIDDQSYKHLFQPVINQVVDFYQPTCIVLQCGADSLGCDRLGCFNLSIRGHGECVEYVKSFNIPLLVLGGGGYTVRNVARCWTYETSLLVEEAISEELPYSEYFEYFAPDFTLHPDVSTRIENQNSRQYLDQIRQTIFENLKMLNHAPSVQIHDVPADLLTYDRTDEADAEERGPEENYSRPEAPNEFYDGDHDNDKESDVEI
- Sequence (Q9Y618 whole entry, further chain): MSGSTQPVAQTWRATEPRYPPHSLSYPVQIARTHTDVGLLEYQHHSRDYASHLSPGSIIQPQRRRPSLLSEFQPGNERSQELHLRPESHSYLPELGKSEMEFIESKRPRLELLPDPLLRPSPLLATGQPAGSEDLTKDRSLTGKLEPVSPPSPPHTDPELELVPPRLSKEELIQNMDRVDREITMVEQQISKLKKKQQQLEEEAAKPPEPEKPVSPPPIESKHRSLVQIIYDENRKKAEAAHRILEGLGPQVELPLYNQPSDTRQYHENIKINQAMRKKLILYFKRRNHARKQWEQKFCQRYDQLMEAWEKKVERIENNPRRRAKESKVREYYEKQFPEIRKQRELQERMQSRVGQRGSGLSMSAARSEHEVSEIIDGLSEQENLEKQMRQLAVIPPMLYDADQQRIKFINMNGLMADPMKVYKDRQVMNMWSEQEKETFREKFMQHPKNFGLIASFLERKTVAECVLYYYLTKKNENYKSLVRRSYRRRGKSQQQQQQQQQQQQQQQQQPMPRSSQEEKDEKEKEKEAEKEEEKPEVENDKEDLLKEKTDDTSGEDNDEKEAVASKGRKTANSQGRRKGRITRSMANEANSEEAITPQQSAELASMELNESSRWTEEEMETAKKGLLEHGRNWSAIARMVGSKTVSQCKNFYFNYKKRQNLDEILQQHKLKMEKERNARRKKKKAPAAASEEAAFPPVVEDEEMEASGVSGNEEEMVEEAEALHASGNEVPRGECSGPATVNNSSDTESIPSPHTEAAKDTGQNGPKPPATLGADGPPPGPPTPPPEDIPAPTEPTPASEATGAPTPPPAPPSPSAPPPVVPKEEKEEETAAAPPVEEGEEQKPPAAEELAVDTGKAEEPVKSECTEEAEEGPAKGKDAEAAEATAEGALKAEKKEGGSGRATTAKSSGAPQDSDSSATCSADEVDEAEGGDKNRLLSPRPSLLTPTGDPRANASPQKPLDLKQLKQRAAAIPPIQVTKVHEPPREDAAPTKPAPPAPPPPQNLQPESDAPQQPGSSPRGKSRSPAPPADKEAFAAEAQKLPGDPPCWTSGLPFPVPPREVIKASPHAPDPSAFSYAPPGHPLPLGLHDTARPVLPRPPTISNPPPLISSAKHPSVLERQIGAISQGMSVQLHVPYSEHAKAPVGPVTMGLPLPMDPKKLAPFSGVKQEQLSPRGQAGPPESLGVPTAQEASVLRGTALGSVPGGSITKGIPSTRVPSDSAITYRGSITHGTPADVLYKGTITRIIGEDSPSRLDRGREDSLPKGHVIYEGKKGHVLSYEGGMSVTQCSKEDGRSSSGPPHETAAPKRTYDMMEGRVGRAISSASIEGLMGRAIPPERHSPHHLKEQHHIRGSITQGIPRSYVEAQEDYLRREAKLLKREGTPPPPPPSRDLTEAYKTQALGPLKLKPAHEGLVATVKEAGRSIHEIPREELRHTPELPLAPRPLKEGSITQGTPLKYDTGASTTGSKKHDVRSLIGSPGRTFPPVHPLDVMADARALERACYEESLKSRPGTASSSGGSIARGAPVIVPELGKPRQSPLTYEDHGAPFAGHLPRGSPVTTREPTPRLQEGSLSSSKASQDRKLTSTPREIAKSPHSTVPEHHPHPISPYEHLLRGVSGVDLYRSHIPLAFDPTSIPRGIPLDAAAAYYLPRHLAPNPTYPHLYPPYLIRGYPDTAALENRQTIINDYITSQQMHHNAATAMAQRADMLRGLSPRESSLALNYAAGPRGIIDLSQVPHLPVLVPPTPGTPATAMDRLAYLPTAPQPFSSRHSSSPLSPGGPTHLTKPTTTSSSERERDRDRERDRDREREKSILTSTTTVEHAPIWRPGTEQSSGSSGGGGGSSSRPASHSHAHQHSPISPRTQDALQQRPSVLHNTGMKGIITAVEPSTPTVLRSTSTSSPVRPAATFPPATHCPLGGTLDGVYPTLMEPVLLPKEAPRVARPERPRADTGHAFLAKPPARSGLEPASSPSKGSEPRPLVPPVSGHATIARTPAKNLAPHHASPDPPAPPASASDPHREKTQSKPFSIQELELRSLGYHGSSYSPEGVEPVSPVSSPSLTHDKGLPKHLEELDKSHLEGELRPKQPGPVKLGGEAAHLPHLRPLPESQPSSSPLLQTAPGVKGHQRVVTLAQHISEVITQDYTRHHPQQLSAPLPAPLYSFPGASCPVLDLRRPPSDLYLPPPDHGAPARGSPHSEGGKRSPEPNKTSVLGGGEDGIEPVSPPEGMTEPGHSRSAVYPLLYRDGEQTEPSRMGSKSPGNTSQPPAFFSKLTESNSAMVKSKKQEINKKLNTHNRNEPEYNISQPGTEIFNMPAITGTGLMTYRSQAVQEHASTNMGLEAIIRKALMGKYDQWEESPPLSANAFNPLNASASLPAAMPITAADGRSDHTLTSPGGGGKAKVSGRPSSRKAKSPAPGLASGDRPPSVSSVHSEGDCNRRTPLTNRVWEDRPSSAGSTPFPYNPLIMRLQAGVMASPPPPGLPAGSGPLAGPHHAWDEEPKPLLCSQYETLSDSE
quantity measured: pIC50
Keep it numeric: pIC50 is minus log10 of the concentration in mol/L.

(Q) Which measured pIC50 value corresponds to NCCCn1cc(CNc2ccc(C(=O)NCCCCCCC(=O)NO)cc2)nn1 ?
(A) 6.86

###

- subject of test: Histone deacetylase 3/Nuclear receptor corepressor 2 (HDAC3/NCoR2) (Homo sapiens)
- Type: protein-complex assay
- Description: Displacement of fluorescent 5-(3-(3-(4-((4-((7-(hydroxyamino)-7-oxoheptyl)carbamoyl)phenylamino)methyl)-1H-1,2,3-triazol-1-yl)propyl)thioureido)-2-(3-hydroxy-6-oxo-6H-xanthen-9-yl)benzoic acid from human HDAC3/NcoR2 by fluorescence polarization assay
quantity measured: pKi
Keep it numeric: pKi is minus log10 of the concentration in mol/L.

(Q) Any idea what pKi came out for NCCCn1cc(CNc2ccc(C(=O)NCCCCCCC(=O)NO)cc2)nn1 on Histone deacetylase 3/Nuclear receptor corepressor 2 (HDAC3/NCoR2) (Homo sapiens)?
(A) 7.64

###

- subject of test: Histone deacetylase 3/Nuclear receptor corepressor 2 (HDAC3/NCoR2) (Homo sapiens)
quantity measured: Kd (nM)
Quick note: give the figure in nM, leave out the unit.

(Q) Which measured Kd value corresponds to O=C(CCCCCCNC(=O)c1ccc(NCc2cn(CCCNC(=S)Nc3ccc(-c4c5ccc(=O)cc-5oc5ccccc45)c(C(=O)O)c3)nn2)cc1)NO ?
(A) 2

###

- subject of test: Protein deacetylase HDAC6 (Homo sapiens, UniProt Q9UBN7)
- Sequence (Q9UBN7 whole entry): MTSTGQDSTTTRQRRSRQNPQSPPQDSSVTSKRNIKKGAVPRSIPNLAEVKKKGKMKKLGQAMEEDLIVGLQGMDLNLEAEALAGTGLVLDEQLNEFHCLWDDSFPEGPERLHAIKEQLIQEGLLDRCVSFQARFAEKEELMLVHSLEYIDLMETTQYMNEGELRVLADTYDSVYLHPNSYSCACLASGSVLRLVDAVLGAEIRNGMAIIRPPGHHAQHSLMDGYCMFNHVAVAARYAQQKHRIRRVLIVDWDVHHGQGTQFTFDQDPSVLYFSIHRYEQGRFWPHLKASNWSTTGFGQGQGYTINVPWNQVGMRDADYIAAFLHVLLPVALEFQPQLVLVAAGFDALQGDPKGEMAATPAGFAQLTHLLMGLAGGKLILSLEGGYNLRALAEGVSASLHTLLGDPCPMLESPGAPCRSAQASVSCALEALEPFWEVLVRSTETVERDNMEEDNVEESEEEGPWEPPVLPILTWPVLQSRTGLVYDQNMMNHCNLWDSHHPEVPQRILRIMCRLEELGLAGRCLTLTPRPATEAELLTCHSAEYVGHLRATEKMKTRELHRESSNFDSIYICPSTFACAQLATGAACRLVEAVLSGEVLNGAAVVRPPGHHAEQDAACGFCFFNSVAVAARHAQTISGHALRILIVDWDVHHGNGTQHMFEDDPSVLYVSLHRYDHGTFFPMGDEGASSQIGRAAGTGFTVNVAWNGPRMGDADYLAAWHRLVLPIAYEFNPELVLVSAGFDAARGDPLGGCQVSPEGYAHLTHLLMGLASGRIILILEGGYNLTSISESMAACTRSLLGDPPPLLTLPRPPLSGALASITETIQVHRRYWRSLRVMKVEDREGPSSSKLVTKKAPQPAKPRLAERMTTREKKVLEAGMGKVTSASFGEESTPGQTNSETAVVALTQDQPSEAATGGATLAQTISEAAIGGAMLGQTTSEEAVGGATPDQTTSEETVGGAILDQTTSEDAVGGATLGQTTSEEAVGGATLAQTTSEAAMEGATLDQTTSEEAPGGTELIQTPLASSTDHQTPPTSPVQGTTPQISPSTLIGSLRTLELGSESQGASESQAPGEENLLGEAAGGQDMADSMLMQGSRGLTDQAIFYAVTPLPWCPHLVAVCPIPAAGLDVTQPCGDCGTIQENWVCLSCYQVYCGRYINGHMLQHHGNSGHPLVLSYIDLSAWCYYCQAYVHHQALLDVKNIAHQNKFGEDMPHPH
quantity measured: Ki

(Q) Which measured Ki value corresponds to O=C1CCc2c(ccc3ccccc23)O1 [SPLITOMICIN] ?
(A) > 75 µM

The measurements presented in this section are drawn from ChEMBL document CHEMBL1145631.
